Reference source for all entries: ChEMBL document CHEMBL1933031

Test Target: Proto-oncogene tyrosine-protein kinase receptor Ret (Homo sapiens) (UniProt P07949)
Sequence (P07949 whole entry): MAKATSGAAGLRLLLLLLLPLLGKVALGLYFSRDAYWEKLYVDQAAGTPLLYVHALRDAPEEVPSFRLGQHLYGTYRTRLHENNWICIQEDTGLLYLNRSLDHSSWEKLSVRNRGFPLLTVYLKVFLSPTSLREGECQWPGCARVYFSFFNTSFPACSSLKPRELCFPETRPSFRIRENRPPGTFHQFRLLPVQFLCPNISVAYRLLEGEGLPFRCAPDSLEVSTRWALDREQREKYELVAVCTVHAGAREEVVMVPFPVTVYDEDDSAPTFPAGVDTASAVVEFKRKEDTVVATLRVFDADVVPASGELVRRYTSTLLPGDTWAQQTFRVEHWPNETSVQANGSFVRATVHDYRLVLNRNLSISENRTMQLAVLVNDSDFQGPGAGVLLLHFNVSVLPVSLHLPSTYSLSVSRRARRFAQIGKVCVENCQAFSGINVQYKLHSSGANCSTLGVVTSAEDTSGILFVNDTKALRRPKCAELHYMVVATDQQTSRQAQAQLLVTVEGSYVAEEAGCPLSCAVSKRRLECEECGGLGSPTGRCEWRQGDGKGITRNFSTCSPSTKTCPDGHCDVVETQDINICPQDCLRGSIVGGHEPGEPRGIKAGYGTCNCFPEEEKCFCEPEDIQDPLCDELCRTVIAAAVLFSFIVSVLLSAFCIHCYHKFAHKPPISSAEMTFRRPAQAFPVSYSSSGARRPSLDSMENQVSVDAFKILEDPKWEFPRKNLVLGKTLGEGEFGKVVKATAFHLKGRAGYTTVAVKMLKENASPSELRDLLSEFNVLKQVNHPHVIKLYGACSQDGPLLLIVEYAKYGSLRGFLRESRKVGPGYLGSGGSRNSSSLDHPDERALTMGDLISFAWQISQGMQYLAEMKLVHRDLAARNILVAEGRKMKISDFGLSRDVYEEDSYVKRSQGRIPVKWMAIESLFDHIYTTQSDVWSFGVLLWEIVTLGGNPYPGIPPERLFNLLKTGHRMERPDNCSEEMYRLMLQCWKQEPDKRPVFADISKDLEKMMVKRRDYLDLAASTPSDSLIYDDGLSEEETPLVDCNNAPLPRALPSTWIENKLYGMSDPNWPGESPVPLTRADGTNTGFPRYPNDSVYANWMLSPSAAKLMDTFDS
Test Description: Inhibition of RET at 10 uM
Consider the following compounds; for each one, report its inhibition.
Answer with a number only, understood to be in %.

Prompt: # get_value(readout='inhibition', item= `CCCC(=O)Oc1cccc(-c2nc(N3CCOCC3)c3cc4ncccc4n3n2)c1` )
Response: 25.8

Prompt: So what's the measured inhibition for this one? `CCCC(CCC)C(=O)Oc1cccc(-c2nc(N3CCOCC3)c3cc4ncccc4n3n2)c1`
Response: 14.4

Prompt: Item under review: `O=C(Oc1cccc(-c2nc(N3CCOCC3)c3cc4ncccc4n3n2)c1)c1ccncc1` . Reported inhibition?
Response: 28.9

Prompt: # lookup: inhibition of `CC(=O)Oc1cccc(-c2nc(N3CCOCC3)c3cc4ncccc4n3n2)c1`
Response: 19

* * *

Test Target: Epidermal growth factor receptor (Homo sapiens) (UniProt P00533)
Condition Summary: at 10 µM
Description: Inhibition of EGFR at 10 uM
Experimental Endpoint: inhibition (%)
Report the value in % with no unit label.

Prompt: Entry `C=CC(=O)Oc1cccc(-c2nc(N3CCOCC3)c3cc4ncccc4n3n2)c1` has what inhibition?
Response: 17.8

Prompt: Recorded inhibition for `CCCC(CCC)C(=O)Oc1cccc(-c2nc(N3CCOCC3)c3cc4ncccc4n3n2)c1` , please?
Response: 20.2

Prompt: Any idea what its inhibition is? The compound is `CCC(=O)Oc1cccc(-c2nc(N3CCOCC3)c3cc4ncccc4n3n2)c1`
Response: 26.8

* * *

I'd be grateful if you could share measured pIC50 for these entries.
Test Target: Phosphatidylinositol 4,5-bisphosphate 3-kinase catalytic subunit alpha isoform (Homo sapiens)
Sequence (P42336 whole entry, canonical isoform): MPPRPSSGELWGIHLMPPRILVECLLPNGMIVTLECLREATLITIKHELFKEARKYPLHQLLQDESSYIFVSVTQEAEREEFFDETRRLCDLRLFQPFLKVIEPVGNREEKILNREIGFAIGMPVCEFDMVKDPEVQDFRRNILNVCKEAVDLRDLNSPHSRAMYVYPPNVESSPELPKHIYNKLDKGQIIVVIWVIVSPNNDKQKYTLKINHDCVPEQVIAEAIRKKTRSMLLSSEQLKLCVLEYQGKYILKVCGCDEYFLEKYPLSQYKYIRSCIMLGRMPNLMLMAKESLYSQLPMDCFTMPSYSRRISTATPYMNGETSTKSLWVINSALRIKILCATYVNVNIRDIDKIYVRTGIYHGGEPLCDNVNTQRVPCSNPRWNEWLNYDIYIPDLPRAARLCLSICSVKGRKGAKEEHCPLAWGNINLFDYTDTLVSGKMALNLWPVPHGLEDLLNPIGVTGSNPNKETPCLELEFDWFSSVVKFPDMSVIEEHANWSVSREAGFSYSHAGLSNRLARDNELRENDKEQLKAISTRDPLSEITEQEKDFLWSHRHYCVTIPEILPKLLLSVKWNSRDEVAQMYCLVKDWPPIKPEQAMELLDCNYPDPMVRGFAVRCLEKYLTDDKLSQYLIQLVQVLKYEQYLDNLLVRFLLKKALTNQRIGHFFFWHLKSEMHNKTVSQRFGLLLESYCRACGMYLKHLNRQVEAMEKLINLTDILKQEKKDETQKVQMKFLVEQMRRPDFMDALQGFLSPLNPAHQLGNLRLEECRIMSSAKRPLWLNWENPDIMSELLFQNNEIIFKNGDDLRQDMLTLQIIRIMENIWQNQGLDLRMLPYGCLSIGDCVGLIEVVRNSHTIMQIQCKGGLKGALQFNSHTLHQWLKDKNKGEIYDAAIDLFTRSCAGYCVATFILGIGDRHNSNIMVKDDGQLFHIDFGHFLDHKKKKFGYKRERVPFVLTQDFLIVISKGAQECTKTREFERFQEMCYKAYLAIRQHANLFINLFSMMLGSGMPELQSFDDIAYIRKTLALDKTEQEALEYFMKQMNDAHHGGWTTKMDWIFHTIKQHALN
Test Description: Inhibition of PI3Kalpha by luminescent kinase assay
Give only the number. pIC50 is defined as minus log10 of concentration in molar units.

Prompt: Recorded pIC50 for `CCC(=O)Oc1cccc(-c2nc(N3CCOCC3)c3cc4ncccc4n3n2)c1` , please?
Response: 6.26

Prompt: Please give the measured pIC50 for this molecule: `O=C(Oc1cccc(-c2nc(N3CCOCC3)c3cc4ncccc4n3n2)c1)c1ccco1`
Response: 6.37

Prompt: If you can, please state the reported pIC50 value of `O=C(Oc1cccc(-c2nc(N3CCOCC3)c3cc4ncccc4n3n2)c1)c1ccncc1` .
Response: 6.38

Prompt: What does the record list as pIC50 for `Oc1cccc(-c2nc(N3CCOCC3)c3cc4ncccc4n3n2)c1` ?
Response: 7.47

Prompt: Fill blank: measured pIC50 of the molecule `CC(=O)Oc1cccc(-c2nc(N3CCOCC3)c3cc4ncccc4n3n2)c1` is ____.
Response: 7.30

Prompt: Name the recorded pIC50 for `CCCC(=O)Oc1cccc(-c2nc(N3CCOCC3)c3cc4ncccc4n3n2)c1` .
Response: 6.29

Prompt: Looking for the measured pIC50 of `CCCC(CCC)C(=O)Oc1cccc(-c2nc(N3CCOCC3)c3cc4ncccc4n3n2)c1` , can you help?
Response: 7.22

Prompt: What does the data say about its pIC50? Entry: `C=CC(=O)Oc1cccc(-c2nc(N3CCOCC3)c3cc4ncccc4n3n2)c1`
Response: 7.32

* * *

Provide the reported inhibition of each item.
Test Target: Proto-oncogene tyrosine-protein kinase receptor Ret (Homo sapiens) (UniProt P07949)
Test Description: Inhibition of RET at 10 uM
The answer is to be given in %; state only the numeric part.

Prompt: Given `CCC(=O)Oc1cccc(-c2nc(N3CCOCC3)c3cc4ncccc4n3n2)c1` , state its recorded inhibition.
Response: 43

Prompt: For `O=C(Oc1cccc(-c2nc(N3CCOCC3)c3cc4ncccc4n3n2)c1)c1ccco1` , what is its reported inhibition?
Response: 22.8

Prompt: Which measured inhibition value corresponds to `CCN(CC)CCNC(=O)c1c(C)[nH]c(/C=C2\C(=O)Nc3ccc(F)cc32)c1C` ?
Response: 84.8

Prompt: Entry under review: `C=CC(=O)Oc1cccc(-c2nc(N3CCOCC3)c3cc4ncccc4n3n2)c1` . Reported inhibition?
Response: 31.9

Prompt: What value of measured inhibition is listed for `Oc1cccc(-c2nc(N3CCOCC3)c3cc4ncccc4n3n2)c1` ?
Response: 37.8

* * *

Test Target: UniProt P29323
Sequence (P29323 whole entry): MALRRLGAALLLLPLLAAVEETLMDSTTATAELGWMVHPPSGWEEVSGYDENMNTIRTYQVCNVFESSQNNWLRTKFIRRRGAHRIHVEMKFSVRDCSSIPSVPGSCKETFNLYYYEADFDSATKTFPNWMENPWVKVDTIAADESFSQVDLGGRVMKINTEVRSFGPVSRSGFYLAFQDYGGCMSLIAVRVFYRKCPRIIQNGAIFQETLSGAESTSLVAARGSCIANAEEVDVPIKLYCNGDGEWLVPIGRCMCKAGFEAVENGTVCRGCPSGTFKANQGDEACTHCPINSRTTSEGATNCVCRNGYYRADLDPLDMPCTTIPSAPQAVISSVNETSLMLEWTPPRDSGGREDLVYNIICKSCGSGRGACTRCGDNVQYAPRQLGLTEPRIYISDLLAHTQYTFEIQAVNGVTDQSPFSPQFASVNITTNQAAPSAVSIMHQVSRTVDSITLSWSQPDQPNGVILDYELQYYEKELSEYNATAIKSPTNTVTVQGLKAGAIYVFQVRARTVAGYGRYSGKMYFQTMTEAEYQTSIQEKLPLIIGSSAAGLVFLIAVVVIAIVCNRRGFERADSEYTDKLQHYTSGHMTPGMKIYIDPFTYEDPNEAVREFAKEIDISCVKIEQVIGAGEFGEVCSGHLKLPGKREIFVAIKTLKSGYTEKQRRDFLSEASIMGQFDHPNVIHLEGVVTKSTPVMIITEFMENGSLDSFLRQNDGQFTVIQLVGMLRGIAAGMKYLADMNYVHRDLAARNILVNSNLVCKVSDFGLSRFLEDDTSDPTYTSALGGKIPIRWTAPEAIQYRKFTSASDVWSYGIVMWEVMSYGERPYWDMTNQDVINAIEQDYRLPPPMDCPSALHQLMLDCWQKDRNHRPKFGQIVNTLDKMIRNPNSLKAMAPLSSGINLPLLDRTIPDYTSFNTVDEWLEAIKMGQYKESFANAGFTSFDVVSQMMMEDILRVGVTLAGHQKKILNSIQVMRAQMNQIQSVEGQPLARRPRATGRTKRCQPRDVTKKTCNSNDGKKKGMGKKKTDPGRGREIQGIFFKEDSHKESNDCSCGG
Test Description: Inhibition of EPH-B2 at 10 uM
# binarize inhibition: threshold 50% inclusive, high side true (1), low side false (0)

Prompt: # check: inhibition of `CC(=O)Oc1cccc(-c2nc(N3CCOCC3)c3cc4ncccc4n3n2)c1` is greater than or equal to 50%
Response: false (0)

Prompt: Could you please find out whether `Oc1cccc(-c2nc(N3CCOCC3)c3cc4ncccc4n3n2)c1` has inhibition that meets 50% or exceeds it?
Response: false (0)

Prompt: In plain terms: is recorded inhibition at least 50% for `CCCC(=O)Oc1cccc(-c2nc(N3CCOCC3)c3cc4ncccc4n3n2)c1` ?
Response: true (1)

Prompt: # bool: inhibition of `Cc1nc(Nc2ncc(C(=O)Nc3c(C)cccc3Cl)s2)cc(N2CCN(CCO)CC2)n1` >= 50%
Response: true (1)

Prompt: Quick check: does `C=CC(=O)Oc1cccc(-c2nc(N3CCOCC3)c3cc4ncccc4n3n2)c1` have inhibition greater than or equal to 50%?
Response: true (1)

Prompt: Confirm if inhibition reported for the compound `O=C(Oc1cccc(-c2nc(N3CCOCC3)c3cc4ncccc4n3n2)c1)c1ccncc1` is 50% or above.
Response: true (1)

Prompt: # check: inhibition of `O=C(Oc1cccc(-c2nc(N3CCOCC3)c3cc4ncccc4n3n2)c1)c1ccco1` is greater than or equal to 50%
Response: false (0)

* * *

Test Target: Receptor tyrosine-protein kinase erbB-2 (Homo sapiens)
Test Description: Inhibition of ErbB2 at 10 uM
Experimental Endpoint: inhibition (%)
Express your answer in %, writing the number without its unit.

Prompt: I would be grateful if you could share the reported inhibition for `CCC(=O)Oc1cccc(-c2nc(N3CCOCC3)c3cc4ncccc4n3n2)c1` .
Response: 12.5

Prompt: Sample `CCCC(=O)Oc1cccc(-c2nc(N3CCOCC3)c3cc4ncccc4n3n2)c1` — what was its inhibition?
Response: 12.5

Prompt: Give its inhibition value. Item: `O=C(Oc1cccc(-c2nc(N3CCOCC3)c3cc4ncccc4n3n2)c1)c1ccco1`
Response: 23.6

Prompt: What value of measured inhibition is listed for `C=CC(=O)Oc1cccc(-c2nc(N3CCOCC3)c3cc4ncccc4n3n2)c1` ?
Response: 21.3

Prompt: Requested read-out: inhibition. Entry: `O=C(Oc1cccc(-c2nc(N3CCOCC3)c3cc4ncccc4n3n2)c1)c1ccncc1`
Response: 23.3

Prompt: Could you share which inhibition value was measured for `Oc1cccc(-c2nc(N3CCOCC3)c3cc4ncccc4n3n2)c1` ?
Response: 10.9

Prompt: Endpoint output: inhibition of `CCCC(CCC)C(=O)Oc1cccc(-c2nc(N3CCOCC3)c3cc4ncccc4n3n2)c1` . Value?
Response: 25.6

Prompt: Endpoint output: inhibition of `CS(=O)(=O)CCNCc1ccc(-c2ccc3ncnc(Nc4ccc(OCc5cccc(F)c5)c(Cl)c4)c3c2)o1` . Value?
Response: 78

Prompt: Quick one: inhibition of `CC(=O)Oc1cccc(-c2nc(N3CCOCC3)c3cc4ncccc4n3n2)c1` ?
Response: 7.1

* * *

System: ECV-304
Test Description: Antiproliferative activity against human ECV304 cells
Format: functional, cell-based
Record form. Attribute: IC50. Fill in for each entry.
Reply with just the number (in µM).

Prompt: Need IC50 of `O=C(Oc1cccc(-c2nc(N3CCOCC3)c3cc4ncccc4n3n2)c1)c1ccco1` , thanks.
Response: 6

Prompt: Entry under review: `CCC(=O)Oc1cccc(-c2nc(N3CCOCC3)c3cc4ncccc4n3n2)c1` . Reported IC50?
Response: 4

Prompt: Requested field: IC50. Item: `CCCC(=O)Oc1cccc(-c2nc(N3CCOCC3)c3cc4ncccc4n3n2)c1`
Response: 1.4

Prompt: What value of measured IC50 is listed for `C=CC(=O)Oc1cccc(-c2nc(N3CCOCC3)c3cc4ncccc4n3n2)c1` ?
Response: 4

Prompt: Dear colleague, I am looking for the recorded IC50 of the following molecule: `Oc1cccc(-c2nc(N3CCOCC3)c3cc4ncccc4n3n2)c1`
Response: 6.7

Prompt: Entry under review: `CC(=O)Oc1cccc(-c2nc(N3CCOCC3)c3cc4ncccc4n3n2)c1` . Reported IC50?
Response: 3.8

Prompt: Record request: IC50 value, item `O=C(Oc1cccc(-c2nc(N3CCOCC3)c3cc4ncccc4n3n2)c1)c1ccncc1`
Response: 10

Prompt: Look up IC50: `CCCC(CCC)C(=O)Oc1cccc(-c2nc(N3CCOCC3)c3cc4ncccc4n3n2)c1`
Response: 2.5

Prompt: Look at this molecule and give its reported IC50. Oc1cccc(-c2nc(N3CCOCC3)c3oc4ncccc4c3n2)c1 [PI-103]
Response: 6.3

* * *

Test Target: Vascular endothelial growth factor receptor 2 (Homo sapiens) (UniProt P35968)
Sequence (P35968 whole entry): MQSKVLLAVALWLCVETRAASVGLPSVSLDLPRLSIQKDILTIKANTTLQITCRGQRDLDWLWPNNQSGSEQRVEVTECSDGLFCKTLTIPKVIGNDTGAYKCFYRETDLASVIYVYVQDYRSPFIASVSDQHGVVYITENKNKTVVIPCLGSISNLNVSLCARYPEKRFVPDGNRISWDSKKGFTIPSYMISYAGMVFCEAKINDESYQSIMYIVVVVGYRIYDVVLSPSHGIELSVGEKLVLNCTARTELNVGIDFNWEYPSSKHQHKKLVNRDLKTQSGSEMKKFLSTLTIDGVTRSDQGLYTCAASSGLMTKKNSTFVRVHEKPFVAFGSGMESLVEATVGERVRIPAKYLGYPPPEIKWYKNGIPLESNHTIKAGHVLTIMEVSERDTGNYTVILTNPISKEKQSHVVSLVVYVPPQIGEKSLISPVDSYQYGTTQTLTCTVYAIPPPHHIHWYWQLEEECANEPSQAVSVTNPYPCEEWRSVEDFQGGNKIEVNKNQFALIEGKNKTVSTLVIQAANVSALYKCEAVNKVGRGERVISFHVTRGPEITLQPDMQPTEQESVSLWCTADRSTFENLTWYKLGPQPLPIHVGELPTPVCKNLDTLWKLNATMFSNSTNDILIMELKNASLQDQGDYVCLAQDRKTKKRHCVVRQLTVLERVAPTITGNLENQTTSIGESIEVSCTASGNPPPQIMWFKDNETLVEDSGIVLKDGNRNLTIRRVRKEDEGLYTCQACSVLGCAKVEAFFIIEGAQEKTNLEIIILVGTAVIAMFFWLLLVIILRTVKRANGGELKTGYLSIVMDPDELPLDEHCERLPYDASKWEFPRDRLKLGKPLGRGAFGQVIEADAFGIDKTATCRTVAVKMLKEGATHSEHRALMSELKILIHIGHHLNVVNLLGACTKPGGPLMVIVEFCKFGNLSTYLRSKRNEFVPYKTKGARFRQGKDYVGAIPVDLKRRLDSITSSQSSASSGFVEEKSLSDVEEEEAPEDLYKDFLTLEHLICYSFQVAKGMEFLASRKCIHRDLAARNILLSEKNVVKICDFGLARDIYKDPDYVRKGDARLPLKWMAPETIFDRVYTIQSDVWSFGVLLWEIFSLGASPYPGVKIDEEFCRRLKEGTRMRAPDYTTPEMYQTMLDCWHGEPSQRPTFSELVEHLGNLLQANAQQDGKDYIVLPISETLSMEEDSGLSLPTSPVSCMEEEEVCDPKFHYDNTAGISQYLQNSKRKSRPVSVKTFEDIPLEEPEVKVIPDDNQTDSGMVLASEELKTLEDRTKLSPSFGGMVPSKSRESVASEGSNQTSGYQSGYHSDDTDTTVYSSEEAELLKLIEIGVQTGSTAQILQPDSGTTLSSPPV
Condition Summary: at 10 µM
Description: Inhibition of KDR at 10 uM
Experimental Endpoint: inhibition (%)
Please state the figure in %; there is no need to write the unit.

Prompt: Which inhibition reading was recorded for the molecule `CCC(=O)Oc1cccc(-c2nc(N3CCOCC3)c3cc4ncccc4n3n2)c1` ?
Response: 25

Prompt: Recorded inhibition for `CCCC(CCC)C(=O)Oc1cccc(-c2nc(N3CCOCC3)c3cc4ncccc4n3n2)c1` , please?
Response: 29.1

Prompt: # get_value(readout='inhibition', item= `O=C(Oc1cccc(-c2nc(N3CCOCC3)c3cc4ncccc4n3n2)c1)c1ccncc1` )
Response: 35.4

Prompt: Requested read-out: inhibition. Entry: `C=CC(=O)Oc1cccc(-c2nc(N3CCOCC3)c3cc4ncccc4n3n2)c1`
Response: 28.4

Prompt: What measured inhibition goes with `Oc1cccc(-c2nc(N3CCOCC3)c3cc4ncccc4n3n2)c1` ?
Response: 39.2

Prompt: Fill in: inhibition of `O=C(Oc1cccc(-c2nc(N3CCOCC3)c3cc4ncccc4n3n2)c1)c1ccco1` is ___
Response: 24.7

Prompt: Entry `CC(=O)Oc1cccc(-c2nc(N3CCOCC3)c3cc4ncccc4n3n2)c1` has what inhibition?
Response: 23.1

Prompt: So what's the measured inhibition for this one? `CCCC(=O)Oc1cccc(-c2nc(N3CCOCC3)c3cc4ncccc4n3n2)c1`
Response: 25.6
